# assaySystem: Progesterone receptor (Homo sapiens) (UniProt P06401)
# Sequence (whole entry): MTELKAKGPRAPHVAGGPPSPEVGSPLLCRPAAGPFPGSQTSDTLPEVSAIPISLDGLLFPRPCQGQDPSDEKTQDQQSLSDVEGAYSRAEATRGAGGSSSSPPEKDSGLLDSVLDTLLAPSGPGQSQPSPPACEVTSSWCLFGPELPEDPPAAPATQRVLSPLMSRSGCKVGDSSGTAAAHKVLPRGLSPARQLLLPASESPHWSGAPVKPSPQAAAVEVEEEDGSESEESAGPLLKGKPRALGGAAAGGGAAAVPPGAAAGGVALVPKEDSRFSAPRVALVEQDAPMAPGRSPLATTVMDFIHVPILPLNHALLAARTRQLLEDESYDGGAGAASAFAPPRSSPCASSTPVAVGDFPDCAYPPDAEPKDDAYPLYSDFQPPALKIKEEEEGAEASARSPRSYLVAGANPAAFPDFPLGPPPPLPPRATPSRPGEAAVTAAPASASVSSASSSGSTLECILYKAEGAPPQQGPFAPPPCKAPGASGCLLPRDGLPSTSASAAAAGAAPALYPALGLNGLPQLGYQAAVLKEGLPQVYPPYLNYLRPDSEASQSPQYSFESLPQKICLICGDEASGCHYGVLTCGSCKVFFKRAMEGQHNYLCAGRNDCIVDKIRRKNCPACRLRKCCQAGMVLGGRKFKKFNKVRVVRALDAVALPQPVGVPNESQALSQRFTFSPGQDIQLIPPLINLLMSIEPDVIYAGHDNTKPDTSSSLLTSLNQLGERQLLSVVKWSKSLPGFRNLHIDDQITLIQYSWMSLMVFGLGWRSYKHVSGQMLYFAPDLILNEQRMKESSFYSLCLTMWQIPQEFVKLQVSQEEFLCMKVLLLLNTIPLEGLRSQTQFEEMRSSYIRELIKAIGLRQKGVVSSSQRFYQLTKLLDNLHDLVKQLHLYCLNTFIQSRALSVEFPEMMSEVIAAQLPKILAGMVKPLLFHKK
# assay: Induction of progesterone receptor B in human Ishikawa cells assessed as induction of PRE/Luc transcriptional activity at 10 uM measured after 24 hrs by luciferase reporter gene assay
# Format: cell-based
Active and inactive are the calls of the source. The calls are words filed in the database; no cut-off is given here.
readoutKind: Activity

Example cases with answers are listed next.
molecule="C=C[C@H]1C(O[C@@H]2O[C@H](CO)[C@@H](O)[C@H](O)[C@H]2O)OC=C(C(=O)O)[C@H]1CC(=O)O (some centres not stated)" readoutkind=Activity val=inactive
molecule=C=C[C@H]1[C@H](O[C@@H]2O[C@H](CO)[C@@H](O)[C@H](O)[C@H]2O)OC=C2C(=O)OCC[C@H]21 readoutkind=Activity val=inactive
molecule=COC(=O)C1=CO[C@@H](O[C@@H]2O[C@H](CO)[C@@H](O)[C@H](O)[C@H]2O)[C@@H]2[C@H](C)O[C@H](OC)C[C@H]12 readoutkind=Activity val=inactive
molecule=C=C[C@H]1[C@H](O[C@@H]2O[C@H](CO)[C@@H](O)[C@H](O)[C@H]2O)OC=C(C(=O)OC)[C@H]1CCOC(=O)c1cc(O)c(O)c(O)c1 readoutkind=Activity val=inactive

# return recorded Activity for input C=C[C@H]1C(O[C@@H]2O[C@H](CO)[C@@H](O)[C@H](O)[C@H]2O)OC=C(C(=O)OC)[C@H]1CC(=O)O (some centres not stated)
inactive

Tell us which Activity value is on record for C=C[C@H]1[C@H](O[C@@H]2O[C@H](CO)[C@@H](O)[C@H](O)[C@H]2O)OC=C(C(=O)O)[C@H]1CCOC(=O)c1cc(O)c(O)c(O)c1
inactive

Look up Activity of COC(=O)C1=CO[C@@H](O[C@@H]2O[C@H](CO)[C@@H](O)[C@H](O)[C@H]2O)[C@@H]2[C@H](C)O[C@@H](OC)C[C@H]12 and report it.
inactive
